This listing pairs compounds with measured solubility (mole fraction).
Conditions: in isopropanol, 303.15 K
Write the value as a bare number.

- CC(=O)c1ccc([N+](=O)[O-])cc1: 0.0128

// switching to the query compound
Q: Can you share its solubility (mole fraction)? I mean this compound: CC(=O)c1cccc([N+](=O)[O-])c1
A: 0.0117

====

Settings: in cyclohexane, 298.15 K
observation.type: solubility (mole fraction)

• CC(=O)c1cccc([N+](=O)[O-])c1 = 0.0026

// switching to the query compound
Q: Can you share its solubility (mole fraction)? I mean this compound: CC(=O)c1ccc([N+](=O)[O-])cc1
A: 0.00332
